Assay: Clearance in dog at 1 mg/kg, iv
Assay type: ADME, organism-based, Canis lupus familiaris
Design: dose 1 mg/kg, route intravenous
Settings: in vivo

| smiles input | clearance [mL/min/kg] |
| --- | --- |
| CC(C)n1cc(S(=O)(=O)c2ccc(CNC(=O)c3cc4ccncc4o3)nc2)cn1 | 9.8 |
| O=C(NCc1ccc(S(=O)(=O)c2cc(F)cc(F)c2)cn1)c1cc2ccncc2o1 | 6.7 |
